Source of measurements: PubChem BioAssay

target: Neurogenic locus notch homolog protein 2 (Homo sapiens) (UniProt Q04721); assay: Notch2 binders on small-molecule microarrays, primary screen, biochemical, small-molecule microarray, 635 nm fluorescence, stem cell growth factors (AID 1073); conditions: Notch2 binding, higher = more signal
Sequence (Q04721 whole entry, looked up): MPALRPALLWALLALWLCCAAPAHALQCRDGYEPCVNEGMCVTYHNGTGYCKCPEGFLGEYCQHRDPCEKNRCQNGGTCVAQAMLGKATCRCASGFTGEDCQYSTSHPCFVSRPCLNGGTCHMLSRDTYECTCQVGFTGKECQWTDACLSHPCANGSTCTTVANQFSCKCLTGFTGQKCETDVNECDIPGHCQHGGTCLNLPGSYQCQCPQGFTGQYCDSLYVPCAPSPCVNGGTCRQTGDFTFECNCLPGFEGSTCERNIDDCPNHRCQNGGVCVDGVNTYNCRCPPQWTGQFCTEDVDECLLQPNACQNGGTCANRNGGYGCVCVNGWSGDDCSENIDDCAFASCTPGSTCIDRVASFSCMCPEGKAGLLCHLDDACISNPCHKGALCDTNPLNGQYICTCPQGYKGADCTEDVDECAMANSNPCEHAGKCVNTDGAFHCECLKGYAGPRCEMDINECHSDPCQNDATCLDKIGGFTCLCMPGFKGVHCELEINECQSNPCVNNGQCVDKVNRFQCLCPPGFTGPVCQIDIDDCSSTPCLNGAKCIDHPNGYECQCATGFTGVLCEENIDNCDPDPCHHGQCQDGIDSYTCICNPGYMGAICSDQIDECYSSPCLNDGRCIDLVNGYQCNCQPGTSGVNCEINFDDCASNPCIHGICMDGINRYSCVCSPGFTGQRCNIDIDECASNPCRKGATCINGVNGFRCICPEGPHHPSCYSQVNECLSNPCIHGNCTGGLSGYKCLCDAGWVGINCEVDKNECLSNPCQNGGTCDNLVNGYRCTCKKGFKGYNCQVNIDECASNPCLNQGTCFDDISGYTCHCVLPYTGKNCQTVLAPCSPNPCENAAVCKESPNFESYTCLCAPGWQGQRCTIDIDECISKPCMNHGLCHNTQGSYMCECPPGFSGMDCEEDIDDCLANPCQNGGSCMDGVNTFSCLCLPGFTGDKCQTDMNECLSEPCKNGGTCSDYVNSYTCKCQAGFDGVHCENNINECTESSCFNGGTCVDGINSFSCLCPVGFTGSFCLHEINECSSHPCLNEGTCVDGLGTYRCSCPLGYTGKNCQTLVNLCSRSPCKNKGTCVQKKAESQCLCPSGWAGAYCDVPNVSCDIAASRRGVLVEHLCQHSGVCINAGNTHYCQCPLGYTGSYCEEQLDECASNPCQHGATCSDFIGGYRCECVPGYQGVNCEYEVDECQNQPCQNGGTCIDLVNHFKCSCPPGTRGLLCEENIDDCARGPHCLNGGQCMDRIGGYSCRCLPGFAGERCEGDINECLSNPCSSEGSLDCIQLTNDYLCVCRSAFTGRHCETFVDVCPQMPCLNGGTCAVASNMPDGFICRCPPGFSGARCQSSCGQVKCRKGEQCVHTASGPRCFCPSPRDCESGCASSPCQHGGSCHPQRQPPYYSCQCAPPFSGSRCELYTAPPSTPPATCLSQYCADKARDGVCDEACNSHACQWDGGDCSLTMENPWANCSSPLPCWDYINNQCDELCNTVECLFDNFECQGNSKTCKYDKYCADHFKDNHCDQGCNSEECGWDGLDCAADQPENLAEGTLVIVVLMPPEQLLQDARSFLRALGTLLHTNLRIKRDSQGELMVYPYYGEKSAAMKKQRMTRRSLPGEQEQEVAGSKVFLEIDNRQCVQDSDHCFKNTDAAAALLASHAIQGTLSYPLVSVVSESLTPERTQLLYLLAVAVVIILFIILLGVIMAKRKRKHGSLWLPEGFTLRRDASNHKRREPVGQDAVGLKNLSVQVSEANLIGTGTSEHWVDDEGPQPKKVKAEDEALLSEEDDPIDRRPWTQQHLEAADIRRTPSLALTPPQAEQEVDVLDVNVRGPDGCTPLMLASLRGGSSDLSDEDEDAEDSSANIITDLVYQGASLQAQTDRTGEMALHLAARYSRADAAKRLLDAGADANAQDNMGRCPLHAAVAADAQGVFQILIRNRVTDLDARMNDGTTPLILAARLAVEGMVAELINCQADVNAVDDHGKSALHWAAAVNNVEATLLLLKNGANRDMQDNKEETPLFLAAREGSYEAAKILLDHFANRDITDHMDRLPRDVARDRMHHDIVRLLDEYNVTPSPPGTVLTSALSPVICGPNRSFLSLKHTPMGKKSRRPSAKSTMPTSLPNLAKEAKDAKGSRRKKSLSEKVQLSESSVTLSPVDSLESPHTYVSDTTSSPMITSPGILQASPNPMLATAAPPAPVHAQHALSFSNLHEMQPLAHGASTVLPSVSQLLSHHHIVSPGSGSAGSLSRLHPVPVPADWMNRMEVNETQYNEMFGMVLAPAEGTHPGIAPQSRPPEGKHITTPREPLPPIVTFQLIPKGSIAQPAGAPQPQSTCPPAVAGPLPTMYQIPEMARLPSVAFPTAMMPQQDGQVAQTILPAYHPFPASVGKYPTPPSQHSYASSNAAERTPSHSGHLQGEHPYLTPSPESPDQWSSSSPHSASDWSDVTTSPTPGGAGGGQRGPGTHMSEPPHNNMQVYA
Kindly supply the reported composite z-score values for the records listed here.

INPUT: Let me know recorded composite z-score for CN1C(=O)C2C=CC(C(O)c3ccc(F)cc3)N(NC(=O)OC(C)(C)C)C2C1=O (centres undefined) , thanks.
OUTPUT: 1

INPUT: // fetch composite z-score given entry CCOC(=O)C[C@H]1[C@H](OC(=O)c2cc3ccccc3oc2=O)[C@@H](NC(=O)c2ccc3ccccc3c2)c2cc(OCCCO)ccc2N1C(=O)Cc1ccc(OC)cc1
OUTPUT: 0.759

INPUT: Tell me composite z-score reported for COC(=O)[C@@]1(Cc2ccc(OC)cc2)[C@H]2c3cc(C(=O)N4CCCC4)n(Cc4ccc(S(C)(=O)=O)cc4)c3C[C@H]2CN1C(=O)c1ccccc1
OUTPUT: 1.59

INPUT: Please report composite z-score for the following compound: C=CCC(OC(C)=O)[C@@H]1[C@@H](N(Cc2cc3ccccc3o2)C(=O)c2ccc(-c3ccccc3)cc2)c2cc(OCCCO)ccc2N1C(=O)Cc1ccc(OC)cc1 (some centres undefined)
OUTPUT: 0.0777

* * *

target: Streptavidin (Streptomyces avidinii); experiment: streptavidin binders on small-molecule microarray, primary screen, artefact control for SMM compound annotation, biophysical, 635/667 nm fluorescence (AID 1147); details: streptavidin binding, higher = more signal;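 also: signal reflects streptavidin binding to arrayed compounds as a control protein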
MEASURED ENDPOINT: composite z-score
Quick one: just the number, no unit, thanks!

INPUT: Send back Streptavidin (Streptomyces avidinii) composite z-score of COc1ccc(CCNC(=O)[C@@]2(Cc3ccccc3I)c3ccccc3C(=O)N(Cc3ccccc3Cl)[C@H]2c2ccc(CO)cc2)cc1 only.
OUTPUT: -0.555

INPUT: Provide composite z-score, tested on Streptavidin (Streptomyces avidinii), for CC1(C)C(=O)C(c2ccccc2)=C2CN3C(=O)N(CCc4ccccc4)C(=O)C3(Cc3ccc(F)cc3)C=C21 (configuration not stated) .
OUTPUT: 0.326

INPUT: System Streptavidin (Streptomyces avidinii). Read-out composite z-score. Item CCc1cccc(NC(=O)O[C@H]2[C@H](OC(=O)Nc3ccccc3)[C@H](OC(=O)Nc3ccccc3)[C@@H](OC)O[C@@H]2CO)c1 . Report value.
OUTPUT: 1.03

INPUT: Lab note: record composite z-score of C=C(C(=O)CC[C@H](OC(=O)c1ccccc1-c1ccccc1C(=O)O)c1ccccc1OCCO)C(C)C tested on Streptavidin (Streptomyces avidinii).
OUTPUT: -0.344

INPUT: Find composite z-score for C=C/C=C/[C@@H]1C(=C)CN([C@@H](Cc2ccccc2)C(=O)OC)[C@H]1[C@@H](O)Cc1ccccc1 on Streptavidin (Streptomyces avidinii) and write it down.
OUTPUT: 0.185

INPUT: Quote composite z-score with test system Streptavidin (Streptomyces avidinii) for COCCOC(=O)N1C(=O)[C@@]2(c3cc(C#CCCO)ccc31)[C@H](C(=O)N1CCCCCCC1)[C@H]1C(=O)O[C@H](c3ccccc3)[C@H](c3ccccc3)N1[C@@H]2c1ccccc1OCCO
OUTPUT: 2.6

INPUT: Answer briefly: composite z-score recorded on Streptavidin (Streptomyces avidinii) for CC(CO)N1C(=O)[C@@H]2[C@H]3C(=O)OCC=C[C@H]3OC23C=CCN(c2ccc(Cl)cc2)C(=O)[C@@H]13 (some centres not stated)
OUTPUT: -2.13

* * *

assay: basal MM1S mitochondrial membrane potential changes, profiling panel, cell-based, JC-1 fluorescence, 24 h, 100 nL compound (AID 1170); details: higher = more signal; also: test concentration not given here
Hi there, I'd appreciate the recorded z-score for every entry that follows.
Respond with the number and no other words.

INPUT: Give the reported z-score for this compound. COCCOC(=O)N1C(=O)[C@@]2(c3cc(C#CCNC(N)=O)ccc31)[C@H](c1ccc(OCCO)cc1)N1[C@H](c3ccccc3)[C@H](c3ccccc3)OC(=O)[C@H]1[C@@H]2C(N)=O
OUTPUT: -0.604

INPUT: // fetch z-score given entry O=C(O)[C@@H]1C[C@@H]2C(=O)N3CCC[C@H]3C(=O)N2[C@@H]1c1cccc(OCCO)c1
OUTPUT: 0.718

INPUT: Name the recorded z-score of the compound listed here: COCCCNC(=O)[C@@]1(Sc2ccc(C)cc2)CC(=O)N(C(C)C)[C@@H]1c1ccc(CO)cc1I
OUTPUT: -2.75

INPUT: Give the reported z-score for this compound. COCCOC(=O)N1C(=O)[C@@]2(c3cc(C#CC4(O)CCCCCC4)ccc31)[C@H](C(=O)N1CCN(c3ncccn3)CC1)[C@H]1C(=O)O[C@H](c3ccccc3)[C@H](c3ccccc3)N1[C@@H]2c1ccccc1OCCO
OUTPUT: -0.589

INPUT: Output z-score of COCCOC(=O)N1C(=O)[C@@]2(c3cc(C#CC4=CCCCC4)ccc31)[C@H](C(=O)N1CCCCCCC1)[C@H]1C(=O)O[C@H](c3ccccc3)[C@H](c3ccccc3)N1[C@@H]2c1ccc(OCCO)cc1
OUTPUT: -1.14

* * *

biological target: Follistatin (Homo sapiens); test: follistatin binders on small-molecule microarrays, primary screen, biochemical, small-molecule microarray, 635/667 nm fluorescence (AID 1132); settings: FST binding, 635 nm fluorescence, higher = more signal
MEASURED ENDPOINT: composite z-score
# output: bare number, no unit

INPUT: Please tell me the measured composite z-score for C=CCOC(=O)[C@H]1[C@@H]2C(=O)O[C@@H](c3ccccc3)[C@@H](c3ccccc3)N2[C@@H](c2ccc(OCCOC(=O)[C@H]3C[C@H]4C(=O)N[C@@H](CCCCNC(C)=O)C(=O)N4[C@H]3c3cccc(OCCO)c3)cc2)[C@]12C(=O)Nc1ccc(I)cc12 ; system: Follistatin (Homo sapiens).
OUTPUT: 1.3

INPUT: Please indicate recorded composite z-score of COc1ccc([Si](C)(C)[C@H]2[C@H](CC(=O)N3Cc4ccccc4C[C@H]3CO)O[C@@]3(C(=O)N(Cc4ccc(N5C(=O)c6cccc7cccc5c67)cc4)c4ccccc43)[C@@H]2C)cc1 measured with Follistatin (Homo sapiens).
OUTPUT: 1.07

INPUT: Give composite z-score for this entry on Follistatin (Homo sapiens): COCCCNC(=O)[C@@]1(Sc2ccc(C)cc2)CC(=O)N(C(C)C)[C@@H]1c1ccc(CO)cc1I
OUTPUT: -0.035

INPUT: Answer briefly: composite z-score recorded on Follistatin (Homo sapiens) for COc1ccc(C(O)C2C=CC3C(=O)N(c4ccccc4)C(=O)C3N2Nc2ccccc2)cc1 (centres undefined)
OUTPUT: 0.955

* * *

Please respond with reported composite z-score for every item in the list.
target: Torsin-1A (Homo sapiens); experiment: small-molecule binders of mutant TOR1A in lysate, primary screen, cell lysate, small-molecule microarray, COS7 lysate, 635/667 nm fluorescence (AID 1150); details: COS7 hTOR1A mutant lysate, 635 nm fluorescence, higher = more signal;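 also: score pools 667 nm emission and signal to noise measuring lysate protein binding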
Could you respond with only the numeric value?

INPUT: State its composite z-score for this compound: C=C(/C(=C/C[C@@H](OC(C)=O)c1ccc(CO)o1)c1cc(C(=O)OC)ccc1OC)C(C)C
OUTPUT: 0.549

INPUT: Recall and state the measured composite z-score for COCCCNC(=O)[C@@]1(c2ccc([N+](=O)[O-])cc2)CC(=O)N(CC23CC4CC(CC(C4)C2)C3)[C@@H]1c1ccc(CO)cc1I .
OUTPUT: 0.0661

INPUT: Quickly give me recorded composite z-score for CN(C)C(=O)[C@]1(CCS(=O)(=O)c2ccccc2)N=C(c2ccc(OCCCO)cc2)O[C@@H]1c1ccccc1
OUTPUT: 0.831

INPUT: Specify measured composite z-score for C=C(CCCC)C(=O)CC[C@H](OC(C)=O)c1ccc(OCCO)cc1 .
OUTPUT: -0.514

INPUT: Let me know recorded composite z-score for C=C(COC)C(=O)CC[C@@H](OC(=O)c1cccnc1)c1ccccc1OCCO , thanks.
OUTPUT: 1.14

INPUT: // fetch composite z-score given entry CC(C)c1ccc(NN2C(C(O)Cc3ccccc3)C=CC3C(=O)N(c4ccccc4)C(=O)C32)cc1 (stereo not drawn)
OUTPUT: 0.815

INPUT: Supply measured composite z-score of COc1ccc(C(O)C2C=CC3C(=O)N(c4ccccc4)C(=O)C3N2Nc2ccccc2F)cc1 (stereo not drawn) in your reply.
OUTPUT: 0.732

INPUT: Kindly indicate its recorded composite z-score. Item: O=C1O[C@H](c2ccccc2)[C@H](c2ccccc2)N2[C@H]1[C@@H](C(=O)N1CCCCCCC1)[C@]1(C(=O)Nc3ccc(C#CC4(O)CCCCCC4)cc31)[C@H]2c1ccc(O)cc1
OUTPUT: 1.49

* * *

tested on: Human papillomavirus type 1a E7 protein (residues 1-88); assay: HPV1a E7 small-molecule binders, primary screen, biochemical, small-molecule microarray, residues 1-88, 635 nm (AID 1129); conditions: small-molecule microarray binding, fluorescence 635 nm; higher = more signal
Provide the reported composite z-score of each item.
I only need the number, thanks.

INPUT: Identify measured composite z-score associated with C=CCC(OC(C)=O)[C@@H]1[C@@H](N(Cc2cc3ccccc3o2)C(=O)c2ccc(-c3ccccc3)cc2)c2cc(OCCCO)ccc2N1C(=O)Cc1ccc(OC)cc1 (some centres not stated)
OUTPUT: -0.27

INPUT: Given the compound O=C1OCC=C[C@H]2OC34C=CCN(c5ccc6ccccc6c5)C(=O)[C@H]3N(CCCCCO)C(=O)[C@@H]4[C@@H]12 (some centres not stated) , write its reported composite z-score.
OUTPUT: -0.381

INPUT: # return recorded composite z-score for entry CCOC(=O)C1=CC[C@@H](c2ccccc2)N(S(=O)(=O)c2ccc(C)cc2)[C@H]1C=Cc1ccccc1
OUTPUT: 0.943

INPUT: Read off the recorded composite z-score for NC(=O)[C@H]1[C@@H]2C(=O)O[C@@H](c3ccccc3)[C@@H](c3ccccc3)N2[C@@H](c2ccc(O)cc2)[C@]12C(=O)Nc1ccc(C#CC3=CCCCC3)cc12
OUTPUT: 1.2

INPUT: Please give measured composite z-score of the following entry: Cc1ccc(S[C@]2(C(=O)NC(C)C)CC(=O)N(Cc3ccccc3Cl)[C@@H]2c2ccc(CO)cc2)cc1
OUTPUT: 0.424

INPUT: Quick one: give measured composite z-score for O=C1C2C=CC(C(O)c3ccc(I)cc3)N(Nc3ccccc3)C2C(=O)N1c1ccccc1 (configuration not stated)
OUTPUT: 1.19

INPUT: Query composite z-score for CN(C)C(=O)[C@@]1(Cc2ccccc2N=[N+]=[N-])N=C(c2ccc(OCCCO)cc2)O[C@H]1c1ccccc1
OUTPUT: 1.25
